Where do the numbers come from? From PubChem BioAssay (NCI).

Test system: HCT-15 colon
Assay: NCI-60 one-dose screen, 48 h
Conditions: 10 µM unless noted
This is part of a sample that, as a whole, favours compounds with a hit. Of some 83,000 tested, about 20% had one in any assay. The source made the active and inactive calls. The calls were made as follows: active = growth percent below 10; inactive = the rest.
Possible outcomes: active, inactive

>  <Smiles notation>
CCOc1ccc(/C=C/C=N/NC(N)=S)cc1

>  <Class label>
inactive

$$$$
>  <Smiles notation>
Cc1cc(Nc2nc(-c3ccncc3)nc3ccccc23)n[nH]1

>  <Class label>
inactive

$$$$
>  <Smiles notation>
CSc1ccccc1C#C/C=C\C#Cc1ccccc1N1CCCC1=O

>  <Class label>
inactive

$$$$
>  <Smiles notation>
COc1cccc(/C=C/c2c(C(=O)O)cccc2[N+](=O)[O-])c1OC

>  <Class label>
inactive

$$$$
>  <Smiles notation>
Cc1cccc(-n2c(C)nc3ccc(NC(=O)NCCCl)cc3c2=O)c1

>  <Class label>
inactive

$$$$
>  <Smiles notation>
C=C1C(=O)O[C@H]2[C@H]1CC/C(COC(=O)NCCc1cccc(OC)c1)=C\CC[C@@]1(C)O[C@@H]21

>  <Class label>
active

$$$$
>  <Smiles notation>
CCC(=O)Nc1ccccc1C#C/C=C\C#Cc1ccccc1SC

>  <Class label>
inactive

$$$$

---

Below, each of the compounds is paired with its reported growth value.
System: SNB-75 CNS
Assay: NCI-60 one-dose screen, 48 h (100 = growth as untreated, 0 = no growth, -100 = all killed)
Details: 10 µM unless noted
This is part of a sample that, as a whole, favours compounds with a hit. Of some 83,000 tested, about 20% had one in any assay. Calls of active or inactive are those of the source. Rule for the calls: active = growth percent below 10; inactive = the rest.
Property measured: growth

>  <Compound>
CN1C(=O)[C@H]2c3c1cccc3[C@@]13NC(=O)O[C@H]1[C@H](CCC3(C)C)C2(C)C

>  <Result>
81.1% (inactive)

$$$$
>  <Compound>
CC(=O)C1CCC(C)=CC1=O (stereo not drawn)

>  <Result>
81.5% (inactive)

$$$$
>  <Compound>
CC(C)(C)c1cn2cccc(C(=O)N3CCN(CC(=O)Nc4ccc(Cl)cc4C(=O)c4ccccc4Cl)CC3)c2n1

>  <Result>
78.4% (inactive)

$$$$

---

Test system: CAKI-1 renal
Experiment: NCI-60 one-dose screen, 48 h (100 = growth as untreated, 0 = no growth, -100 = all killed)
Conditions: 10 µM unless noted
The panel holds about 83,000 compounds, 20% with a hit somewhere; the sample as a whole holds those more often.
Property measured: growth (%)

>  <Molecule>
CC(=O)C1CCC(C)=CC1=O (centres undefined)

>  <Units label>
%

>  <Quantitative readout>
96.5

$$$$
>  <Molecule>
Nc1c(C(=O)Nc2cccc([N+](=O)[O-])c2)sc2nc3c(cc12)C(O)CCC3 (centres undefined)

>  <Units label>
%

>  <Quantitative readout>
66.7

$$$$
>  <Molecule>
COc1ccc2c(c1)C=CC(C#N)N2C(=O)c1ccccc1 (centres undefined)

>  <Units label>
%

>  <Quantitative readout>
23.6

$$$$
>  <Molecule>
O=C1CCCCC=C1C[N+](=O)[O-]

>  <Units label>
%

>  <Quantitative readout>
76

$$$$

---

Below, each of the compounds is paired with its reported growth value.
System: A498 renal
Assay: NCI-60 one-dose screen, 48 h (100 = growth as untreated, 0 = no growth, -100 = all killed)
Details: 10 µM unless noted
Compounds without any hit were thinned out: in the full panel of roughly 83,000, 20% have a hit.

>  <Compound>
CC(Br)C(O)c1cc2c(cc1Br)OCO2 (stereo unspecified)

>  <Units label>
%

>  <growth>
127

$$$$
>  <Compound>
COc1ccc([N+](=O)[O-])c(/C=C/C(=O)c2ccccn2)c1

>  <Units label>
%

>  <growth>
83.3

$$$$
>  <Compound>
CC[C@H](C)[C@H]1NC(=O)[C@@H](N[C@](C)(O)[C@@H](N)CC(C)C)[C@@H](C)OC(=O)[C@H](Cc2ccc(OC)cc2)N(C)C(=O)[C@@H]2CCCN2C(=O)[C@H](CC(C)C)NC(=O)[C@@H](C)C(=O)[C@H](C(C)C)OC(=O)C[C@@H]1O

>  <Units label>
%

>  <growth>
-28.9

$$$$
>  <Compound>
COc1ncc(-c2ccc3ncnc(Nc4cccc(Cl)c4)c3c2)cc1N(S(C)(=O)=O)S(C)(=O)=O

>  <Units label>
%

>  <growth>
49.6

$$$$
>  <Compound>
COC1=CC(c2ccc[nH]2)=N/C1=C\c1[nH]c(C)c(C(=O)CCC(=O)Oc2ccc3c(c2)CCC2C3CC[C@]3(C)[C@@H](O)CC[C@@H]23)c1C (stereo partly specified)

>  <Units label>
%

>  <growth>
-12.7

$$$$
>  <Compound>
CCC(=O)Oc1ccc2c(c1)CC[C@@H]1[C@@H]2CC[C@]2(C)C[C@H](OC(=O)CC)C[C@@H]12

>  <Units label>
%

>  <growth>
7.94

$$$$
>  <Compound>
CSc1ccccc1C#C/C=C\C#Cc1ccccc1N1CCCCC1=O

>  <Units label>
%

>  <growth>
107

$$$$
>  <Compound>
CN(C)C1CCC(NC2=CC(=O)C=CC2=O)CC1 (stereo unspecified)

>  <Units label>
%

>  <growth>
122

$$$$
>  <Compound>
O=C(C[N+](=O)[O-])c1ccc(Cl)cc1

>  <Units label>
%

>  <growth>
108

$$$$
>  <Compound>
O=C(Cc1c(F)cccc1Cl)Nc1ccc(S(=O)(=O)Nc2ncccn2)cc1

>  <Units label>
%

>  <growth>
98.4

$$$$
>  <Compound>
O=C(NCCCN1CCN(CCCNC(=O)C2CCCCC2)CC1)C1CCCCC1

>  <Units label>
%

>  <growth>
105

$$$$
